Data credit: patent US20230416363A1

Give measured pKd for each item. Keep answers brief.
target: T1, hPD-1-his (human, UniProt Q15116 25-167)
T1 construct: domain: IgV domain; monomer in solution; biotin-labelled where captured by streptavidin; also called biotin-hPD-1-his
T1 sequence (Q15116 other isoform, or with tags, fused parts or gaps limits assumed): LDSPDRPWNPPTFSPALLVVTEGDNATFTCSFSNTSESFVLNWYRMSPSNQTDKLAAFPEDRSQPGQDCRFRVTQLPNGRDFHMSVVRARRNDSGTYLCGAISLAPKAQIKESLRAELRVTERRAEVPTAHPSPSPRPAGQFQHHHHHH
assay_remarks: SPR, Exp. 4
pKd: −log10 of the molar value.

38B2 (antibody, V domains shown, 24H9 derivative, IgG; also called 780_54; hPD1 Ab (38B2)) VH: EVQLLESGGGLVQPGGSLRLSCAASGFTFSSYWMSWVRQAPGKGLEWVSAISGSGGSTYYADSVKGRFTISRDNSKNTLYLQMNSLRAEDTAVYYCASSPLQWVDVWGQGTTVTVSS VL: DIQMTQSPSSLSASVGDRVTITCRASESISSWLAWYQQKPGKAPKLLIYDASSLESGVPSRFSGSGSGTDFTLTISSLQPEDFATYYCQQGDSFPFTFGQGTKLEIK	9.69

For every listed record, write down its pKd.
1. 33C4 (antibody, V domains shown, also called 780_39) VH: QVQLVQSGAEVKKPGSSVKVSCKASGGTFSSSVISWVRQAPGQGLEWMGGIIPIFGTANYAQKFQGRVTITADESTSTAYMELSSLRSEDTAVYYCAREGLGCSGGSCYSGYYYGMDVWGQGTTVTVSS VL: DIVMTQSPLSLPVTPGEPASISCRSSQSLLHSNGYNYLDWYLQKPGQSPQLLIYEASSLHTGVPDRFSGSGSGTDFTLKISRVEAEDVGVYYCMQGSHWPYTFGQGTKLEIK
2. 31B1 (antibody, V domains shown, also called 780_38; 33B1 and 31B2 (apparent misprints)) VH: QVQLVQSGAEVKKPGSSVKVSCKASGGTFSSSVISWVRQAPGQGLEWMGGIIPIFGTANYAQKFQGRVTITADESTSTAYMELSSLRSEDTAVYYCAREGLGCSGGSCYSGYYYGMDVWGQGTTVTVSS VL: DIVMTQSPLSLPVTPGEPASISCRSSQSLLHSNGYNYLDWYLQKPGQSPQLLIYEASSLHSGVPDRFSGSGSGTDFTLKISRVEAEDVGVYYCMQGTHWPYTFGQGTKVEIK
3. 38A6 (antibody, V domains shown, also called 780_46) VH: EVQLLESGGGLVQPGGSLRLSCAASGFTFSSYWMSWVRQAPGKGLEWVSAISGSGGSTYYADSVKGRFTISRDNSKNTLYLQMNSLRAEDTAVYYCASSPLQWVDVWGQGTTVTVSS VL: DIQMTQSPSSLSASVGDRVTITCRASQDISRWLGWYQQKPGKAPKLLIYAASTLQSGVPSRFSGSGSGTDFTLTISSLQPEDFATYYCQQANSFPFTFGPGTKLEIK

Result:
1: > 10.27; 2: > 10.72; 3: > 10.05
